tested on: MC-38; test: Optimal dose 24 hr after intraperitoneal administration against C38 colon tumor cells in mice.; assay type: functional, Mus musculus

STRUCTURE	ASSAY SYSTEM	OD / mg/kg
O=C(O)Cc1cccc2c(=O)c3cccc([N+](=O)[O-])c3oc12	MC-38	330
O=C(O)Cc1cccc2c(=O)c3cccc(CC(=O)O)c3oc12	MC-38	330
O=C(O)Cc1cccc2c(=O)c3cccc(F)c3oc12	MC-38	330
O=C(O)Cc1cccc2c(=O)c3cccc(C(F)(F)F)c3oc12	MC-38	220
CCCOc1cccc2c(=O)c3cccc(CC(=O)O)c3oc12	MC-38	150
O=C(O)Cc1cccc2c(=O)c3cccc(Cl)c3oc12	MC-38	150
O=C(O)Cc1cccc2c(=O)c3cccnc3oc12	MC-38	750
O=C(O)Cc1cccc2c(=O)c3cccc(Br)c3oc12	MC-38	100
CCOc1cccc2c(=O)c3cccc(CC(=O)O)c3oc12	MC-38	330
Cc1cccc2c(=O)c3cccc(CC(=O)O)c3oc12	MC-38	45
CCc1cccc2c(=O)c3cccc(CC(=O)O)c3oc12	MC-38	100
O=C(O)Cc1cccc2c(=O)c3ccccc3oc12	MC-38	220

---

tested on: MC-38; assay: Optimal dose 24 hr after intraperitoneal administration against C38 colon tumor cells in mice.; assay type: functional, Mus musculus
Each entry gets 0.0 if its OD stays under 300 mg/kg, and 1.0 if its OD is 300 mg/kg or above.

STRUCTURE	CAT
CCCCOc1cccc2c(=O)c3cccc(CC(=O)O)c3oc12	0.0
O=C(O)Cc1cccc2c(=O)c3cccc(-c4ccccc4)c3oc12	1.0
COc1cccc2c(=O)c3cccc(CC(=O)O)c3oc12	0.0
CC(=O)Nc1cccc2c(=O)c3cccc(CC(=O)O)c3oc12	1.0
Nc1cccc2c(=O)c3cccc(CC(=O)O)c3oc12	1.0
O=C(O)Cc1cccc2c(=O)c3cccc(O)c3oc12	1.0
